The measurements presented in this section are drawn from paper PMC9728284.

Test system: HSV-1
PROTOCOL_DETAILS: HSV-1 inhibition in Vero cells (PrestoBlue, compound and virus added simultaneously)
Type: cell-based, Herpes simplex virus type 1 (MacIntyre strain)
CONDITION_SUMMARY: each compound at its non-toxic concentration (Table 1 c1); MOI 0.1; value in parentheses = higher cell death than virus-alone control
Recorded measurements of Percent Inhibition of HSV-1, one per entry
Please respond with the number in % and leave the unit unwritten.

# input compound: `CC(C)=CCC[C@](C)(O[C@@H]1O[C@H](CO[C@@H]2O[C@@H](CO)[C@H](O)[C@H]2O)[C@@H](O)[C@H](O)[C@H]1O)[C@H]1CC[C@]2(C)[C@@H]1[C@H](O)C[C@@H]1[C@@]3(C)CC[C@H](O[C@@H]4O[C@H](CO)[C@@H](O)[C@H](O)[C@H]4O[C@@H]4O[C@H](CO)[C@@H](O)[C@H](O)[C@H]4O)C(C)(C)[C@@H]3CC[C@]12C` ; wanted: its Percent Inhibition of HSV-1
28.6

Any idea what its Percent Inhibition of HSV-1 is? The compound is `CC(C)=CCC[C@](C)(O[C@@H]1O[C@H](CO[C@@H]2OC[C@@H](O)[C@H](O)[C@H]2O)[C@@H](O)[C@H](O)[C@H]1O)[C@H]1CC[C@]2(C)[C@@H]1[C@H](O)C[C@@H]1[C@@]3(C)CC[C@H](O[C@@H]4O[C@H](CO)[C@@H](O)[C@H](O)[C@H]4O[C@@H]4O[C@H](CO)[C@@H](O)[C@H](O)[C@H]4O)C(C)(C)[C@@H]3CC[C@]12C`
30.9

Form field: reported Percent Inhibition of HSV-1 of `CC(C)=CCC[C@](C)(O[C@@H]1O[C@H](CO)[C@@H](O)[C@H](O)[C@H]1O)[C@H]1CC[C@]2(C)[C@@H]1[C@H](O)C[C@@H]1[C@@]3(C)CC[C@H](O)C(C)(C)[C@@H]3[C@@H](O[C@@H]3O[C@H](CO)[C@@H](O)[C@H](O)[C@H]3O[C@@H]3O[C@@H](C)[C@H](O)[C@@H](O)[C@H]3O)C[C@]12C`
26.7

---

Test system: HSV-1
PROTOCOL_DETAILS: HSV-1 inhibition in Vero cells (PrestoBlue, compound and virus added simultaneously)
Type: cell-based, Herpes simplex virus type 1 (MacIntyre strain)
CONDITION_SUMMARY: each compound at its non-toxic concentration (Table 1 c1); MOI 0.1; value in parentheses = higher cell death than virus-alone control
Method: Herpes simplex virus type 1 (HSV-1, MacIntyre strain, ATCC, VR-539) or herpes simplex virus type 2 (HSV-2, ATCC, VR-734) were used in these studies. Virus titer was determined by plaque assay. […] After incubation, cells were fixed with methanol, stained with Giemsa (Sigma) and plaques were counted. […] All ginsenosides, isomers, and protopanaxadiols were evaluated for toxic effects on Vero cells prior to anti-viral testing. […]
Label rule, in plain words: Percent Inhibition of HSV-1 of 20% and up is label 1, under 20% is label 0.

COMPOUND	LABEL_CLASS
CC(C)=CCC[C@](C)(O[C@@H]1O[C@H](CO[C@@H]2OC[C@H](O)[C@H](O)[C@H]2O)[C@@H](O)[C@H](O)[C@H]1O)[C@H]1CC[C@]2(C)[C@@H]1[C@H](O)C[C@@H]1[C@@]3(C)CC[C@H](O[C@@H]4O[C@H](CO)[C@@H](O)[C@H](O)[C@H]4O[C@@H]4O[C@H](CO)[C@@H](O)[C@H](O)[C@H]4O)C(C)(C)[C@@H]3CC[C@]12C	label 1

Can CC(C)=CCC[C@](C)(O)C1CC[C@]2(C)C1C(O)CC1C3(C)CCC(OC4OC(CO)C(O)C(O)C4OC4OC(CO)C(O)C(O)C4O)C(C)(C)C3CCC12C (stereo partly drawn) [20(S)-Rg3, Ginsenoside 20(S)-Rg3] be said to have Percent Inhibition of HSV-1 at or above 20%?
label 1

Given the entry `CC(C)=CCC[C@](C)(O[C@@H]1O[C@H](CO)[C@@H](O)[C@H](O)[C@H]1O)[C@H]1CC[C@]2(C)[C@@H]1[C@H](O)C[C@@H]1[C@@]3(C)CC[C@H](O)C(C)(C)[C@@H]3[C@@H](O[C@@H]3O[C@H](CO)[C@@H](O)[C@H](O)[C@H]3O)C[C@]12C` , answer whether its Percent Inhibition of HSV-1 meets or surpasses 20%.
label 0

---

PROTOCOL_DETAILS: Cytotoxicity on Vero cells (PrestoBlue cell viability assay)
Assay type: cell-based
CONDITION_SUMMARY: African green monkey, 20(S)-Rg3 250 μM; parentheses = greater proliferation or metabolic activity than untreated cells; read-out: Percent Cell Viability
PARAMETER: viability at 48 h, 250 μM (%)
Report the value in % with no unit label.

Entry under review: CC(C)=CCC[C@](C)(O)C1CC[C@]2(C)C1C(O)CC1C3(C)CCC(OC4OC(CO)C(O)C(O)C4OC4OC(CO)C(O)C(O)C4O)C(C)(C)C3CCC12C (stereo partly drawn) [20(S)-Rg3, Ginsenoside 20(S)-Rg3] . Reported viability at 48 h, 250 μM?
129

---

PROTOCOL_DETAILS: Cytotoxicity on Vero cells (PrestoBlue cell viability assay)
Assay type: cell-based
CONDITION_SUMMARY: African green monkey
PARAMETER: IC50 at 48 h

Endpoint output: IC50 at 48 h of CC(C)=CCC[C@](C)(O)C1CC[C@]2(C)C1C(O)CC1C3(C)CCC(OC4OC(CO)C(O)C(O)C4OC4OC(CO)C(O)C(O)C4O)C(C)(C)C3CCC12C (stereo partly drawn) [20(S)-Rg3, Ginsenoside 20(S)-Rg3] . Value?
~400 µM

---

PROTOCOL_DETAILS: Cytotoxicity on Vero cells (PrestoBlue cell viability assay)
Assay type: cell-based
CONDITION_SUMMARY: African green monkey, 20(S)-Rg3 50 μM; parentheses = greater proliferation or metabolic activity than untreated cells; read-out: Percent Cell Viability
PARAMETER: viability at 48 h, 50 μM

Reported viability at 48 h, 50 μM for CC(C)=CCC[C@](C)(O)C1CC[C@]2(C)C1C(O)CC1C3(C)CCC(OC4OC(CO)C(O)C(O)C4OC4OC(CO)C(O)C(O)C4O)C(C)(C)C3CCC12C (stereo partly drawn) [20(S)-Rg3, Ginsenoside 20(S)-Rg3] : what is it?
113%

---

System: HSV-1
PROTOCOL_DETAILS: HSV-1 inhibition in Vero cells (PrestoBlue, compound and virus added simultaneously)
Type: cell-based, Herpes simplex virus type 1 (MacIntyre strain)
CONDITION_SUMMARY: each compound at its non-toxic concentration (Table 1 c1); MOI 0.1; value in parentheses = higher cell death than virus-alone control
Readings of Percent Inhibition of HSV-1 for the listed molecules
Report the figure in % without appending any unit label.

Below, 2 molecules whose answers are already recorded.
MOLECULE	Percent Inhibition of HSV-1 [%]
CC(C)=CCC[C@@](C)(O)C1CC[C@]2(C)C1C(O)CC1C3(C)CCC(OC4OC(CO)C(O)C(O)C4OC4OC(CO)C(O)C(O)C4O)C(C)(C)C3CCC12C (stereo partly drawn) [20(R)-Rg3]	22.7
CC(C)=CCC[C@@](C)(O)C1CC[C@]2(C)C1C(O)CC1C3(C)CCC(O)C(C)(C)C3CCC12C (stereo partly drawn) [20(R)-protopanaxadiol]	14.4

Consider the additional molecule presented here.
Look up Percent Inhibition of HSV-1 for this molecule: `CC(C)=CCC[C@](C)(O[C@@H]1O[C@H](CO)[C@@H](O)[C@H](O)[C@H]1O)[C@H]1CC[C@]2(C)[C@@H]1[C@H](O)C[C@@H]1[C@@]3(C)CC[C@H](O[C@@H]4O[C@H](CO)[C@@H](O)[C@H](O)[C@H]4O[C@@H]4O[C@H](CO)[C@@H](O)[C@H](O)[C@H]4O)C(C)(C)[C@@H]3CC[C@]12C`
36.1
